Source of measurements: ChEMBL document CHEMBL4138080

Catalogue of pIC50 readings, one per entry.
method_summary: Inhibition of rabbit full length skeletal muscle myosin 2 ATPase activity using Pre-formed rabbit skeletal muscle F-actin filaments and ATP incubated for 1 hr by CytoPhos reagent based ATPase assay
Design: species or system Oryctolagus cuniculus
pIC50: −log10 of the molar value.

Previously resolved entries follow.
smiles: Cc1ccc2c(c1)C(=O)[C@]1(O)CCN(c3ccccc3)C1=N2
pIC50: 5.67 to 6.06
--
smiles: C=CC(=O)Nc1cccc(N2CC[C@@]3(O)C(=O)c4cc(C)ccc4N=C23)c1
pIC50: < 4.00
--
smiles: C=CCN(CC=C)c1cccc(N2CC[C@@]3(O)C(=O)c4cc(C)ccc4N=C23)c1
pIC50: < 4.97

Reported pIC50, compound `Cc1ccc2c(c1)C(=O)[C@]1(O)CCN(c3ccc(OCc4ccccc4)cc3)C1=N2` : ____ < 4.40

Report pIC50 for `Cc1ccc2c(c1)C(=O)[C@]1(O)CCN(c3ccc4ccccc4c3)C1=N2` please. < 4.40

Quick check: pIC50 of `CCC(=O)Nc1cccc(N2CC[C@@]3(O)C(=O)c4cc(C)ccc4N=C23)c1` ? < 4.00
